# Target or system: MAPK14 (human)
# Protocol description: Assessment of MAPK14 Kinase Activity
Would you kindly list IC50 for each of these compounds?

Request: Look at this compound and give its reported IC50. CC(Oc1nncc2cc(Nc3ccc(F)cc3)ccc12)C(F)(F)F (configuration not stated)
Result: 9.1 nM

Request: Using the record for "CONC(=O)c1ccc(C)c(Nc2nnc(-c3ccccc3)[nH]2)c1" , report its IC50.
Result: < 50 nM

Request: Value lookup for IC50; key = "Fc1ccc(Oc2cc3cnc(NC4CCOCC4)nc3cn2)c(F)c1"
Result: < 300 nM

Request: I have this compound here, "Cc1ncccc1-c1nnc2c(F)c(-c3cc(C(=O)NC4CC4)cc(F)c3C)c(F)cn12" , and I need its recorded IC50.
Result: 81 nM

Request: Give its IC50 value. Item: "O=C(c1sc2c(ccc(=O)n2-c2c(F)cccc2F)c1Nc1cccc(CO)n1)N1CC[C@@H](O)C1"
Result: 5 to 500 nM

Request: Data request, read-out IC50, for "CC(C)Nc1ncc2c(n1)N(CC(=O)O)C(=O)N(c1ccccc1Cl)C2"
Result: < 10000 nM

Request: Need IC50 of "Cc1cccc(Nc2c(C(=O)N3CCC[C@@H]3CO)sc3c2ccc(=O)n3-c2c(F)cccc2F)n1" , thanks.
Result: 15 to 30 nM

Request: May I ask what IC50 has been recorded for "Cc1cccc(Nc2c(C(=O)N3CCC[C@H]3CO)sc3c2ccc(=O)n3-c2c(F)cccc2F)n1" ?
Result: 5 to 500 nM

Request: Would you kindly share the measured IC50 for CC1CC(C)CN(c2[nH]nc(-c3ccc(Cl)cc3)c2-c2ccncc2)C1 (configuration not stated) ?
Result: 130 nM

Request: Would you mind telling me what IC50 value was observed for "Cc1c(NC(=O)Nc2cc(C(C)(C)C)nn2-c2ccc(F)cc2F)sc(CN2CCOCC2)c1Cl" ?
Result: < 5000 nM

Request: IC50 for "CC(C)Nc1ncc2c(n1)N(CCS(C)(=O)=O)C(=O)N(c1ccccc1Cl)C2" ?
Result: < 10000 nM

Request: Fill in: IC50 of "Cc1ccc(C(=O)NC2CC2)cc1Nc1ncc(C(=O)NCc2ccccc2)s1" is ___
Result: < 50 nM

###

# Target or system: PIK3CD (Human) (UniProt O00329)
# Sequence (O00329 whole entry, looked up): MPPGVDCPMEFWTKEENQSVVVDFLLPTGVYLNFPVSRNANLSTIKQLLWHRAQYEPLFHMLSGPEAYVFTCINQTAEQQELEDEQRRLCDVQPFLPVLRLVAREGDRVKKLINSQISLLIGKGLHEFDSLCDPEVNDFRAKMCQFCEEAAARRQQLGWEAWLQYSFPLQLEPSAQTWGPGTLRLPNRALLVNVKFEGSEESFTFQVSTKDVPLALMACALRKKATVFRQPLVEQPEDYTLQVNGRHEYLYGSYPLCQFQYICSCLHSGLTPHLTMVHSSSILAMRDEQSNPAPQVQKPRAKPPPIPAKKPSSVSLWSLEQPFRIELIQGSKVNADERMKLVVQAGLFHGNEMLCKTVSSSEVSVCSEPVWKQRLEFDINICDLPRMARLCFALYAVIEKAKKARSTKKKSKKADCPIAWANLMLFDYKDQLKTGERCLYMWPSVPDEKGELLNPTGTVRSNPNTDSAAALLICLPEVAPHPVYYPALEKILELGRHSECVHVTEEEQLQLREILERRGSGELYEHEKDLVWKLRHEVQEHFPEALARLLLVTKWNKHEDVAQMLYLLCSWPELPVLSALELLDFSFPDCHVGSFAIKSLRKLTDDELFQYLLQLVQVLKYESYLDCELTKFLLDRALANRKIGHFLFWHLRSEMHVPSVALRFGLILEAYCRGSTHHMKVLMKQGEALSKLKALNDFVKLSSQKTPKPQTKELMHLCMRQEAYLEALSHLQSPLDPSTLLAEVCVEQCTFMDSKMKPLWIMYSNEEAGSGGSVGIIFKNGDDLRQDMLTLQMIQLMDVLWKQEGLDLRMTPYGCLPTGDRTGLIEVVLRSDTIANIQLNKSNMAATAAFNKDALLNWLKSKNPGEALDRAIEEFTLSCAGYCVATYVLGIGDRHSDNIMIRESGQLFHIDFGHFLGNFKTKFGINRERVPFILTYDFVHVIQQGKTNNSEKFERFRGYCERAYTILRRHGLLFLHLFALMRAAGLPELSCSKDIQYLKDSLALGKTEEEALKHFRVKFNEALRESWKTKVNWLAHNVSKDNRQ
# Protocol description: Assessment of PIK3CD Kinase Activity
pIC50: −log10 of the molar value.
Quantity measured: pIC50

Request: Recorded pIC50 of CCc1cccn2c(-c3cccc(F)c3)c(C(C)Nc3ncnc4[nH]cnc34)nc12 (stereo not given) , please.
Result: 6.00 to 6.30

Request: Entry "CC(=O)Nc1nc2ccc(-c3cccc(-c4nc(C)no4)c3)cn2n1" : reported pIC50 = ?
Result: < 4.00

Request: Please give the measured pIC50 for this compound: CN1CC2CN(c3cnc4ncc(-c5ccc6oc(N)nc6c5)cc4n3)CC2C1 (stereo not given)
Result: 6.00 to 7.00

Request: Can you share its pIC50? I mean this compound: CC(Nc1ncnc2[nH]cnc12)c1cc(Cl)c2cncn2c1-c1cccc(F)c1 (stereo not given)
Result: ≥ 7.30

Request: Fill in: pIC50 of Cc1ncc2c(Cl)cc(C(C)Nc3ncnc4[nH]cnc34)c(-c3cccc(F)c3)n12 (stereo not given) is ___
Result: ≥ 7.30

###

# Target or system: PIK3CG (human)
# Protocol description: Inhibition of PIK3CG Kinase Activity
Exercise: state measured pIC50 for each of the compounds provided.
Expect pIC50 as a plain number equal to -log10 of the molar concentration.

Request: Notebook: pull reported pIC50 for PIK3CG (human), entry "COc1cc2c(O[C@@H]3CCC[C@@H](C)C3)c(C(=O)Nc3nn[nH]n3)sc2cc1C"
Result: 7.62

Request: Enter reported pIC50 observed with PIK3CG (human) for "CCN(CC)c1ncc2c(n1)-c1sc(NC(=O)N3CCC[C@@]3(Cc3ccccc3)C(N)=O)nc1CC2"
Result: 5.80

Request: What pIC50 appears in the records for this compound with PIK3CG (human)? "Cc1nc2cnc3ccc(C#Cc4cccnc4)cc3c2n1-c1ccc(C(C)(C)C#N)cc1"
Result: 6.93

Request: Report pIC50 for "COc1cc(Nc2nc3ccccc3nc2NS(=O)(=O)c2cccc(C(=O)NCCCN(C)C)c2)cc(OC)c1" tested on PIK3CG (human).
Result: 7.52

Request: I'm curious: which pIC50 was measured for "COc1cc2sc(C(=O)Nc3nnn[nH]3)c(OCC3CCCCCC3)c2cc1OC" tested on PIK3CG (human)?
Result: 7.44

Request: Lookup: pIC50 / PIK3CG (human) / "COc1cc2sc(C(=O)Nc3nn[nH]n3)c(O[C@H]3C[C@H](C)C[C@H](C)C3)c2cc1OC"
Result: 6.99

###

Field: IC50. Provide a value for each of the compounds that follow.
# Target or system: PIK3CG (human) (UniProt P48736)
# Sequence (P48736 whole entry, looked up): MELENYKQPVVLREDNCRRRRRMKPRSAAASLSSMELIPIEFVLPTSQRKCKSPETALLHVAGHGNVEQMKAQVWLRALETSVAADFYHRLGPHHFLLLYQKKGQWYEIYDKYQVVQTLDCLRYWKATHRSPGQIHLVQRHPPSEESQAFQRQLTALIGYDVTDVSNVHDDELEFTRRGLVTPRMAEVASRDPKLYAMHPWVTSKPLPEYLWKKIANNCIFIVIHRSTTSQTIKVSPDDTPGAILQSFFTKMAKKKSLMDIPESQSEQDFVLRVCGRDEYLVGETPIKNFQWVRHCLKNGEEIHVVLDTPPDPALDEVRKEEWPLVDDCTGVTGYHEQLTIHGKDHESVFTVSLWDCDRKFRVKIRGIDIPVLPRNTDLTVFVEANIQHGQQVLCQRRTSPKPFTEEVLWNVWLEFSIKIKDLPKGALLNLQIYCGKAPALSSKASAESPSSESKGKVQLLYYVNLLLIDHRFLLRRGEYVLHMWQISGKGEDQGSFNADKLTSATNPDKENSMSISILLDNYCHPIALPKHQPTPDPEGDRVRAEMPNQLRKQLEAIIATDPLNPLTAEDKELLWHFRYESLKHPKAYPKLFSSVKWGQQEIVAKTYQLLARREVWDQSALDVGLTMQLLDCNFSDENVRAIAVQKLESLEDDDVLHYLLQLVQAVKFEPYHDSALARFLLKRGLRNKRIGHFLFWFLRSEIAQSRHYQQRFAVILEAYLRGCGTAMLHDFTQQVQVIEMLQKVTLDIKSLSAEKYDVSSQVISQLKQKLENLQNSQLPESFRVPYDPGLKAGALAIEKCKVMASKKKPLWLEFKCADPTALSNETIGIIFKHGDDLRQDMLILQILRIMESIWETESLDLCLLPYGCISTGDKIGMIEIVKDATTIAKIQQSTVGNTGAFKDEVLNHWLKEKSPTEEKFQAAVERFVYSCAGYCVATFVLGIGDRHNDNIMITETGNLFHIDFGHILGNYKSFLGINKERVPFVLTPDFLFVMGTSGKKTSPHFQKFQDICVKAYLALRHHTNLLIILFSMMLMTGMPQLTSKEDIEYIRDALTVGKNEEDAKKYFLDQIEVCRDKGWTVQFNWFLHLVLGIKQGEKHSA
# Protocol description: Inhibition of PIK3CG Kinase Activity
Output spec: scalar in nM, unitless text.

Request: What does the data say about its IC50? Entry: "Cn1ncc2c(Nc3ccc(C(N)=O)cc3)nc(Nc3ccc(NC(=O)Nc4cccnc4)cc3)nc21"
Result: 68

Request: Need IC50, item "COc1ccc(OC)c(Nc2nc3ncccc3nc2NS(=O)(=O)c2ccccc2)c1"
Result: 73

###

Consider the following compounds; for each one, report its pIC50.
# Target or system: MAPK14 (human) (UniProt Q16539)
# Sequence (Q16539 whole entry, looked up): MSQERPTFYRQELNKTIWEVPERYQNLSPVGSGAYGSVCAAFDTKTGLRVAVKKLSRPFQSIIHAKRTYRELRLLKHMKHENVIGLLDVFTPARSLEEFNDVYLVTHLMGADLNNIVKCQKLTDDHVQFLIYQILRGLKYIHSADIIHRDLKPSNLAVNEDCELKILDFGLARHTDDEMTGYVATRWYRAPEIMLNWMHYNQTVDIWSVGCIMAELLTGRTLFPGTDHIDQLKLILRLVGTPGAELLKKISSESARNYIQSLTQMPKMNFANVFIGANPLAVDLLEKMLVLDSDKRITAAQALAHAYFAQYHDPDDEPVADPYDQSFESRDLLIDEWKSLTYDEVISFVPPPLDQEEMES
# Protocol description: Inhibition of LPS Induced TNF-alpha Production in THP-1 Cells
# Protocol conditions: thp1
pIC50: −log10 of the molar value.

Request: I have this compound here, "Cc1ccc(C(N)=O)cc1Nc1nc(NCCc2ccc(F)cc2)nc(N[C@H]2CCNC2)n1" , and I need its recorded pIC50.
Result: < 5.30

Request: State the recorded pIC50 for this entry: "Cc1ccc(C(N)=O)cc1Nc1nc(NCC(C)C)nc(N[C@H]2CCNC2)n1"
Result: < 5.30

Request: Given the entry "COC(=O)c1ccc(C)c(Nc2nc(N[C@H]3CCNC3)nc(N(C)CC(C)(C)C)n2)c1" , report its measured pIC50.
Result: < 6.60

###

# Target or system: MAPK14 (human) (UniProt Q16539)
# Protocol description: Inhibition of MAPK14 Kinase Activity
pIC50: −log10 of the molar value.
Consider the following molecules; for each one, report its pIC50.

Request: Value lookup for pIC50; key = "Cc1ccc(C(=O)NC2CC2)cc1-c1ccc(C(=O)N(CCCO)Cc2ccccc2)cc1"
Result: > 5.00

Request: Quick check: pIC50 of "Cc1ccc(C(=O)NC2CC2)cc1-c1ccc(C(=O)N(CCO)Cc2ccccc2)cc1" ?
Result: > 5.00

Request: Consider the molecule "Cc1ccc(C(=O)NC2CC2)cc1-c1ccc(C(=O)N(CCO)c2ccccc2)cc1" and give its measured pIC50.
Result: > 5.00

Request: Field request: pIC50 | item: "CS(=O)(=O)N1CCC(Nc2ncc3cc(Oc4ccc(F)cc4F)ncc3n2)CC1"
Result: > 7.30

Request: pIC50 lookup needed for COc1ccccc1CCNc1nc(NC(Cc2c[nH]c3ncccc23)C(N)=O)nc(N(C)[C@@H](C)c2ccccc2)n1 (some centres undefined) , thanks.
Result: < 4.40

Request: Quick one: pIC50 of "O=C(CCCNc1ncc(C(F)(F)F)cc1Cl)NNS(=O)(=O)c1ccc(CNC(=O)c2ccc(Cl)cc2)s1" ?
Result: < 5.00

Request: GET /values?readout=pIC50&item= CC(C)(NCCc1ccc(-n2c(N)c(C(=O)c3ccc(F)cc3F)ccc2=O)cc1)C(=O)OC1CC2CCC1C2 (centres undefined)
Result: > 7.00

Request: # pIC50 lookup, item "CNC(=O)Nc1cc(COc2ccc(NC(=O)Nc3cc(C(C)(C)C)nn3-c3ccc(C)cc3)c3ccccc23)ccn1"
Result: > 8.00

Request: Entry "CNc1nc(NCCc2ccccc2OC)nc(Nc2ccc3ncccc3c2)n1" : reported pIC50 = ?
Result: < 4.40

###

# Target or system: UniProtKB P42336
# Sequence (P42336 whole entry, looked up): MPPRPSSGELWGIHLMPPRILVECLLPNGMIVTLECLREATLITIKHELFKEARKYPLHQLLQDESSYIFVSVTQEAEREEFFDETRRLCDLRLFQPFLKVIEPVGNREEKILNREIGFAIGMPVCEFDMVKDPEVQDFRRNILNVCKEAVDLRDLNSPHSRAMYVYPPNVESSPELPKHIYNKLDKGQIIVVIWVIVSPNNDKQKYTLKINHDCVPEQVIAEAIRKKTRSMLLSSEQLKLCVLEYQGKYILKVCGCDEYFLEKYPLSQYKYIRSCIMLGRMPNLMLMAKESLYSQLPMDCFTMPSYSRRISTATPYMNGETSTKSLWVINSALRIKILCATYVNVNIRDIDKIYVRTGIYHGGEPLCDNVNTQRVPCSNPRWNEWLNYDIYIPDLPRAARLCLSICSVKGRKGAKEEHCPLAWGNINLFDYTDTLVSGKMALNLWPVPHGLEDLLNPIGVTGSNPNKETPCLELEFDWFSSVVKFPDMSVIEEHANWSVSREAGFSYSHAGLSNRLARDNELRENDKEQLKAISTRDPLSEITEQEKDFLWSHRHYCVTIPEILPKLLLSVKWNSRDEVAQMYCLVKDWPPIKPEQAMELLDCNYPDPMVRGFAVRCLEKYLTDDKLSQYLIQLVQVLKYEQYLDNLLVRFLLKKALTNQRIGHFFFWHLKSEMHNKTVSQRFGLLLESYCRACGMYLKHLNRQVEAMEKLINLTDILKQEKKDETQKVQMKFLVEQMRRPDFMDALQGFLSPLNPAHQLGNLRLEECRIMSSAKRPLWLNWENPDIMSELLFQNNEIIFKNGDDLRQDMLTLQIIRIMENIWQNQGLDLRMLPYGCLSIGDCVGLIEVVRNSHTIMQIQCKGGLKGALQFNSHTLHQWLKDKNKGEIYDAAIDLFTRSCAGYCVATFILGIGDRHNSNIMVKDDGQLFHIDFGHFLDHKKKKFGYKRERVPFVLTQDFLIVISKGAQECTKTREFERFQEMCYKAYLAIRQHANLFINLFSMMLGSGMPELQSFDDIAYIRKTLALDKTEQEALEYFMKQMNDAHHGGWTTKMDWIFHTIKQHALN
# Protocol description: Enzyme Assay
Quantity measured: IC50

Request: Any idea what its IC50 is? The molecule is "COCCN1CC(C)(C)Oc2nc(N3CC4CCC(C3)O4)nc(-c3ccc(NC(=O)Nc4ccon4)cc3)c2C1=O"
Result: > 10 µM

Request: Given the entry "C[C@H](NC(=O)c1c(N)nn2cccnc12)c1cc2cccc(Cl)c2c(=O)n1CCNS(=O)(=O)C(F)(F)F" , report its measured IC50.
Result: 1 to 10 µM

Request: # IC50 lookup, item "COc1cccc(-c2cn3c(I)c(C)nc3c(N3CCOCC3)n2)c1"
Result: 0.1 to 1 µM

Request: Which value of IC50 has been reported for "CCN1CC(C)(C)Oc2nc(N3CC4CCC(C3)O4)nc(-c3ccc(NC(=O)Nc4cnccn4)cc3)c2C1=O" in the records?
Result: > 10 µM
